- experimental target: UniProt P03372
- Sequence (P03372 1-595): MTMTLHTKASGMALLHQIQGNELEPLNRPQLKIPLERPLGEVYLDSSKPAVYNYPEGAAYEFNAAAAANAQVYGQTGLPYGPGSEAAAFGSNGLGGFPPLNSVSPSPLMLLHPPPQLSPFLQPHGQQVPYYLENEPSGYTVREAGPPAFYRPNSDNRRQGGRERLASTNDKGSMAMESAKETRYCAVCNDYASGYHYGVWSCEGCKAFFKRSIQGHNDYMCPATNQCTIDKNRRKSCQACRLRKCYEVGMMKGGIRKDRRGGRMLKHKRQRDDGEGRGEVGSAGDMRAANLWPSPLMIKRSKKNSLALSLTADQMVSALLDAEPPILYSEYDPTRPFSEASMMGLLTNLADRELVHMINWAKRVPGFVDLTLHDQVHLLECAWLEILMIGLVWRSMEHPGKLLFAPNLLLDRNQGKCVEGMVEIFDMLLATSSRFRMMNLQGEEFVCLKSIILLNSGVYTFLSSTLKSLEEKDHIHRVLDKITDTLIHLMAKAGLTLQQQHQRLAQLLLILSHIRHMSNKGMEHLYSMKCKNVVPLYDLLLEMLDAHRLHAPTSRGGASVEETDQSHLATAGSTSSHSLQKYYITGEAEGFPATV
- test protocol: Degradation of ERα in T-47D cells (immunoblotting, 4 h)
- Type: cell-based
- Parameters: host or cells: T-47D
- test conditions: 10nM compound
assay endpoint: Degradation rate (%) of ERα in T-47D cells
Report as a plain number; the unit % is understood.

As a guide, the following entries are already answered.
compound: O=C1CCC(N2C(=O)c3cc4c(cc3C2=O)OC2(CC4)CN(CC3CC4(CCN(c5ccc([C@@H]6c7ccc(O)cc7CC[C@@H]6c6ccccc6)cc5)CC4)C3)C2)C(=O)N1 (stereo partly shown)
experimental target: UniProt P03372
recorded result: -38
--
compound: C[C@@H]1Cc2c(ccc3[nH]ncc23)C(c2ccc(N3CCC4(CCN(CC(=O)N5CCC6(CC5)COc5c6ccc6c5CN(C5CCC(=O)NC5=O)C6=O)C4)CC3)cn2)N1CC(F)(F)F (stereo partly shown)
experimental target: UniProt P03372
recorded result: 82
--
compound: CCNC(=O)[C@H]1CC(N2CCC3(CC2)COc2c3ccc3c2CN(C2CCC(=O)NC2=O)C3=O)CCN1C1CC2(CCN(c3ccc([C@@H]4c5ccc(O)cc5CC[C@@H]4c4ccccc4)cc3)CC2)C1 (stereo partly shown)
experimental target: UniProt P03372
recorded result: 87
--
compound: CC1CC(N2CCC3(CC2)COc2c3ccc3c2CN(C2CCC(=O)NC2=O)C3=O)CCN1C1CCN(c2ccc(C3c4ccc(O)cc4CCC3c3ccccc3)cc2)CC1 (stereo not shown)
experimental target: UniProt P03372
recorded result: 19
--
compound: O=C1CCC(N2Cc3c(ccc4c3OCC43CCN(C4CC5(CCC6(CC5)CN(c5ccc([C@@H]7c8ccc(O)cc8CC[C@@H]7c7ccccc7)cc5)C6)C4)CC3)C2=O)C(=O)N1 (stereo partly shown)
experimental target: UniProt P03372
recorded result: 45
--
compound: O=C1CCC(N2Cc3c(ccc4c3OCC43CCN(CC4CCN(C(=O)C5CCN(c6ccc([C@@H]7c8ccc(O)cc8CC[C@@H]7c7ccccc7)cc6)CC5)CC4)CC3)C2=O)C(=O)N1 (stereo partly shown)
experimental target: UniProt P03372
recorded result: 84
--
compound: O=C1CCC(N2Cc3c(ccc4c3OCC43CCN(C4CCN(C(=O)C5CC6(CCN(c7ccc([C@@H]8c9ccc(O)cc9CC[C@@H]8c8ccccc8)cc7)CC6)C5)CC4)CC3)C2=O)C(=O)N1 (stereo partly shown)
experimental target: UniProt P03372
recorded result: 88
--
compound: O=C1CCC(N2Cc3c(ccc4c3OCC43CCN(C(=O)C4CCC5(CC4)CN(c4ccc([C@@H]6c7ccc(O)cc7CC[C@@H]6c6ccccc6)cc4)C5)CC3)C2=O)C(=O)N1 (stereo partly shown)
experimental target: UniProt P03372
recorded result: 62

Measured Degradation rate (%) of ERα in T-47D cells (UniProt P03372), entry O=C1CCC(N2Cc3c(ccc4c3OCC43CCN(CC(=O)N(CC4CC4)C4CC5(CCN(c6ccc([C@@H]7c8ccc(O)cc8CC[C@@H]7c7ccccc7)cc6)CC5)C4)CC3)C2=O)C(=O)N1 (stereo partly shown) : 60

Measured Degradation rate (%) of ERα in T-47D cells (UniProt P03372), entry C[C@@H]1Cc2c([nH]c3ccccc23)[C@@H](c2c(F)cc(N3CCC4(CCN(CC(=O)N5CCC6(CC5)COc5c6ccc6c5CN(C5CCC(=O)NC5=O)C6=O)CC4)CC3)cc2F)N1CC(F)F (stereo partly shown) : 78

---

- experimental target: ERα (Homo sapiens)
- test protocol: Degradation of ERα in T-47D cells (immunoblotting, 4 h)
- Type: cell-based
- Parameters: host or cells: T-47D
- test conditions: 1nM compound
Entries and their measured Degradation rate (%) of ERα in T-47D cells follow.
Report as a plain number; the unit % is understood.

compound: O=C1CCC(N2Cc3c(ccc4c3OCC43CCN(C(=O)C4CCC(N5CCN(c6ccc([C@@H]7c8ccc(O)cc8CC[C@@H]7c7ccccc7)cc6)CC5)CC4)CC3)C2=O)C(=O)N1 (some centres unmarked)
recorded result: 61

Item: O=C1CCC(N2Cc3c(ccc4c3OCC43CCN(C(=O)CN4CCN(c5ccc([C@@H]6c7ccc(O)cc7CC[C@@H]6c6ccccc6)cc5)CC4)CC3)C2=O)C(=O)N1 (some centres unmarked) | Degradation rate (%) of ERα in T-47D cells: 31

Item: O=C1CCC(N2Cc3ccc4c(c3C2=O)OC2(CC4)CCN(CC3CCN(c4ccc([C@@H]5c6ccc(O)cc6CC[C@@H]5c5ccccc5)cc4)CC3)CC2)C(=O)N1 (some centres unmarked) | Degradation rate (%) of ERα in T-47D cells: -11

Item: O=C1CCC(N2Cc3c(ccc4c3OC3(CC4)CCN(C4CCC5(CC4)CCN(c4ccc([C@@H]6c7ccc(O)cc7CC[C@@H]6c6ccccc6)cc4)CC5)CC3)C2=O)C(=O)N1 (some centres unmarked) | Degradation rate (%) of ERα in T-47D cells: 28

Item: O=C1CCC(N2Cc3c(ccc4c3OCC43CCN(CC(=O)N4CCC5(CC4)CCN(c4ccc([C@@H]6c7ccc(O)cc7CC[C@@H]6c6ccccc6)cc4)CC5)CC3)C2=O)C(=O)N1 (some centres unmarked) | Degradation rate (%) of ERα in T-47D cells: 73

Item: C[C@@H]1Cc2c(ccc3[nH]ncc23)[C@@H](c2c(F)cc(N3CCC4(CCN(C(=O)CN5CCC6(CC5)COc5c6ccc6c5CN(C5CCC(=O)NC5=O)C6=O)CC4)CC3)cc2F)N1CC(F)F (some centres unmarked) | Degradation rate (%) of ERα in T-47D cells: 46

Item: CC1CN(C2CCN(c3ccc([C@@H]4c5ccc(O)cc5CC[C@@H]4c4ccccc4)cc3)CC2)CCC1N1CCC2(CC1)COc1c2ccc2c1CN(C1CCC(=O)NC1=O)C2=O (some centres unmarked) | Degradation rate (%) of ERα in T-47D cells: 21

Item: C[C@@H]1Cc2c(ccc3[nH]ncc23)C(c2ccc(N3CC4(CCC(N5CCC6(CC5)COc5c6ccc6c5CN(C5CCC(=O)NC5=O)C6=O)CC4)C3)cn2)N1CC(F)(F)F (some centres unmarked) | Degradation rate (%) of ERα in T-47D cells: 42

Item: O=C1CCC(N2Cc3c(ccc4c3OCC43CCN(C(=O)C4CN(CC5CCN(c6ccc([C@@H]7c8ccc(O)cc8CC[C@@H]7c7ccccc7)cc6)CC5)C4)CC3)C2=O)C(=O)N1 (some centres unmarked) [J9] | Degradation rate (%) of ERα in T-47D cells: 78

Item: C[C@@H]1Cc2c(ccc3[nH]ncc23)C(c2c(F)cc(N3CC4(CCC(N5CCC6(CC5)COc5c6ccc6c5CN(C5CCC(=O)NC5=O)C6=O)CC4)C3)cc2F)N1CC(F)F (some centres unmarked) | Degradation rate (%) of ERα in T-47D cells: 34

Item: O=C1CCC(N2C(=O)c3ccc4c(c3C2=O)OCC42CCN(C3CCN(C(=O)C4CCN(c5ccc([C@@H]6c7ccc(O)cc7CC[C@@H]6c6ccccc6)cc5)CC4)CC3)CC2)C(=O)N1 (some centres unmarked) | Degradation rate (%) of ERα in T-47D cells: 36

---

Entries and their measured Degradation rate (%) of ERα in T-47D cells follow.
- experimental target: ERα (Homo sapiens, UniProt P03372)
- Sequence (P03372 1-595): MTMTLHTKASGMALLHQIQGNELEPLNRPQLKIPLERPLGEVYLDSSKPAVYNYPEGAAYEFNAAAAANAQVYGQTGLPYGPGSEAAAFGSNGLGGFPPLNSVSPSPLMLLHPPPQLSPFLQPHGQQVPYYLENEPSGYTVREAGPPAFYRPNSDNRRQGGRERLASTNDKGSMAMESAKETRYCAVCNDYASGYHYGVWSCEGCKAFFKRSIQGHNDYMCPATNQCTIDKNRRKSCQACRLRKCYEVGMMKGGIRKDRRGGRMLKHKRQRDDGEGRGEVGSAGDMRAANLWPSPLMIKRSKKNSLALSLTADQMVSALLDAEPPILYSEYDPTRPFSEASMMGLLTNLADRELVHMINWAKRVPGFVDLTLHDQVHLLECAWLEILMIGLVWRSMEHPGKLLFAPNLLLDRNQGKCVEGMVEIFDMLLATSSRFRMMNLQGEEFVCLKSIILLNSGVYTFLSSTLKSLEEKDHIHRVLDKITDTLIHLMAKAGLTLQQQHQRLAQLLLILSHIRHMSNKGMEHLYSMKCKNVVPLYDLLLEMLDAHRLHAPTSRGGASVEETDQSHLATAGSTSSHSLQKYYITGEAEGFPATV
- test protocol: Degradation of ERα in T-47D cells (immunoblotting, 4 h)
- Type: cell-based
- Design: host or cells: T-47D
- test conditions: 1nM compound
Report as a plain number; the unit % is understood.

As a guide, the following entries are already answered.
compound: O=C1CCC(N2Cc3c(ccc4c3OCC43CCN(C(=O)CN4CC[C@]5(CCN(c6ccc([C@@H]7c8ccc(O)cc8CC[C@@H]7c7ccccc7)cc6)C5)C4)CC3)C2=O)C(=O)N1 (some centres unmarked)
recorded result: 35
--
compound: O=C1CCC(N2Cc3c(ccc4c3OCC43CCN(C4CCN(C5CCN(c6ccc([C@@H]7c8ccc(O)cc8CC[C@@H]7c7ccccc7)cc6)CC5)CC4F)CC3)C2=O)C(=O)N1 (some centres unmarked)
recorded result: 30
--
compound: CC(C(=O)N1CCC2(CC1)COc1c2ccc2c1CN(C1CCC(=O)NC1=O)C2=O)N1CCC2(CCN(c3ccc([C@@H]4c5ccc(O)cc5CC[C@@H]4c4ccccc4)cc3)CC2)C1 (some centres unmarked)
recorded result: 65

Item: O=C1CCC(N2Cc3c(ccc4c3OCC43CCN(CC(=O)N4CCC(Oc5ccc([C@@H]6c7ccc(O)cc7CC[C@@H]6c6ccccc6)cc5)CC4)CC3)C2=O)C(=O)N1 (some centres unmarked) | Degradation rate (%) of ERα in T-47D cells: 61

Item: CN(CC1CCN(c2ccc([C@@H]3c4ccc(O)cc4CC[C@@H]3c3ccccc3)cc2)CC1)[C@H]1CC[C@@H](C(=O)N2CCC3(CC2)COc2c3ccc3c2CN(C2CCC(=O)NC2=O)C3=O)CC1 (some centres unmarked) | Degradation rate (%) of ERα in T-47D cells: 71

Cited source: patent EP4656642A1
